- System: LOU-NH91
- Protocol: relative viability (nuclei count vs DMSO), 5 days (fraction); higher = more cells survive
- Condition Info: first compound 0.000632 µM

# Compound, Assay System, relative viability
records = [
    ("CC(=O)O[C@@]12CO[C@@H]1C[C@H](O)[C@@]1(C)C(=O)[C@H](O)C3=C(C)[C@@H](OC(=O)[C@H](O)[C@@H](NC(=O)OC(C)(C)C)c4ccccc4)C[C@@](O)([C@@H](OC(=O)c4ccccc4)[C@H]21)C3(C)C [Docetaxel] + O=C(CCCCCCC(=O)Nc1ccccc1)NO [Vorinostat] (partner 1 µM)", "LOU-NH91", 0.628),
    ("CC(=O)O[C@@]12CO[C@@H]1C[C@H](O)[C@@]1(C)C(=O)[C@H](O)C3=C(C)[C@@H](OC(=O)[C@H](O)[C@@H](NC(=O)OC(C)(C)C)c4ccccc4)C[C@@](O)([C@@H](OC(=O)c4ccccc4)[C@H]21)C3(C)C [Docetaxel] + Cc1nc(NC(=O)N2CCC[C@H]2C(N)=O)sc1-c1ccnc(C(C)(C)C(F)(F)F)c1 [Alpelisib] (partner 2 µM)", "LOU-NH91", 0.737),
    ("CC(=O)O[C@@]12CO[C@@H]1C[C@H](O)[C@@]1(C)C(=O)[C@H](O)C3=C(C)[C@@H](OC(=O)[C@H](O)[C@@H](NC(=O)OC(C)(C)C)c4ccccc4)C[C@@](O)([C@@H](OC(=O)c4ccccc4)[C@H]21)C3(C)C [Docetaxel] + CC1(C)CCC(c2ccc(Cl)cc2)=C(CN2CCN(c3ccc(C(=O)NS(=O)(=O)c4ccc(N[C@H](CCN5CCOCC5)CSc5ccccc5)c(S(=O)(=O)C(F)(F)F)c4)cc3)CC2)C1 [Navitoclax] (partner 0.5 µM)", "LOU-NH91", 0.512),
    ("CC(=O)O[C@@]12CO[C@@H]1C[C@H](O)[C@@]1(C)C(=O)[C@H](O)C3=C(C)[C@@H](OC(=O)[C@H](O)[C@@H](NC(=O)OC(C)(C)C)c4ccccc4)C[C@@](O)([C@@H](OC(=O)c4ccccc4)[C@H]21)C3(C)C [Docetaxel] + CS(=O)(=O)CCNCc1ccc(-c2ccc3ncnc(Nc4ccc(OCc5cccc(F)c5)c(Cl)c4)c3c2)o1 [Lapatinib] (partner 2 µM)", "LOU-NH91", 0.589),
]

* * *

Each entry below lists one item and its recorded relative viability value.
- Test system: SW 1573
- Protocol: relative viability (nuclei count vs DMSO), 5 days (fraction); higher = more cells survive
- Condition Info: first compound 15.81 µM

# Molecule, relative viability
records = [
    ("O=C(O)CCCCC(CCSCc1ccccc1)SCc1ccccc1 (stereo not given) [CPI-613] + COc1cc2c(Oc3ccc(NC(=O)C4(C(=O)Nc5ccc(F)cc5)CC4)cc3F)ccnc2cc1OCCCN1CCOCC1 [Foretinib] (partner 0.25 µM)", 0.807),
    ("O=C(O)CCCCC(CCSCc1ccccc1)SCc1ccccc1 (stereo not given) [CPI-613] + CC(=O)Nc1cccc(-n2c(=O)n(C3CC3)c(=O)c3c(Nc4ccc(I)cc4F)n(C)c(=O)c(C)c32)c1 [Trametinib] (partner 0.02 µM)", 0.433),
    ("O=C(O)CCCCC(CCSCc1ccccc1)SCc1ccccc1 (stereo not given) [CPI-613] + O=C(c1cc(Cc2n[nH]c(=O)c3ccccc23)ccc1F)N1CCN(C(=O)C2CC2)CC1 [Olaparib] (partner 8 µM)", 0.395),
    ("O=C(O)CCCCC(CCSCc1ccccc1)SCc1ccccc1 (stereo not given) [CPI-613] + Cc1nc(NC(=O)N2CCC[C@H]2C(N)=O)sc1-c1ccnc(C(C)(C)C(F)(F)F)c1 [Alpelisib] (partner 2 µM)", 0.764),
    ("O=C(O)CCCCC(CCSCc1ccccc1)SCc1ccccc1 (stereo not given) [CPI-613] + Nc1ncn([C@H]2C[C@H](O)[C@@H](CO)O2)c(=O)n1 [Decitabine] (partner 2 µM)", 0.399),
]

* * *

- System: NCI-H1437
- Protocol: relative viability (nuclei count vs DMSO), 5 days (fraction); higher = more cells survive
- Condition Info: first compound 0.01581 µM

# Compound, relative viability
measured = [
    ("COc1cc2nccc(Oc3ccc(NC(=O)Nc4cc(C)on4)c(Cl)c3)c2cc1OC [Tivozanib] + CC(C)C[C@H](NC(=O)[C@H](Cc1ccccc1)NC(=O)c1cnccn1)B(O)O [Bortezomib] (partner 0.002 µM)", 0.558),
    ("Nc1ccn([C@@H]2O[C@H](CO)[C@@H](O)[C@@H]2O)c(=O)n1 [Cytarabine] + Nc1nc2[nH]cc(CCc3ccc(C(=O)N[C@@H](CCC(=O)O)C(=O)O)cc3)c2c(=O)[nH]1 [Pemetrexed] (partner 0.2 µM)", 0.344),
    ("COc1cc2nccc(Oc3ccc(NC(=O)Nc4cc(C)on4)c(Cl)c3)c2cc1OC [Tivozanib] + CC(=O)c1c(C)c2cnc(Nc3ccc(N4CCNCC4)cn3)nc2n(C2CCCC2)c1=O [Palbociclib] (partner 0.5 µM)", 0.344),
    ("COc1cc2nccc(Oc3ccc(NC(=O)Nc4cc(C)on4)c(Cl)c3)c2cc1OC [Tivozanib] + Cc1nc(Nc2ncc(C(=O)Nc3c(C)cccc3Cl)s2)cc(N2CCN(CCO)CC2)n1 [Dasatinib] (partner 0.075 µM)", 0.449),
    ("COc1cc2nccc(Oc3ccc(NC(=O)Nc4cc(C)on4)c(Cl)c3)c2cc1OC [Tivozanib] + Cc1nc(NC(=O)N2CCC[C@H]2C(N)=O)sc1-c1ccnc(C(C)(C)C(F)(F)F)c1 [Alpelisib] (partner 2 µM)", 1),
    ("Nc1ccn([C@@H]2O[C@H](CO)[C@@H](O)[C@@H]2O)c(=O)n1 [Cytarabine] + N=C(N)NC(=N)NCCc1ccccc1 [Phenformin] (partner 250 µM)", 0.183),
    ("Nc1ccn([C@@H]2O[C@H](CO)[C@@H](O)[C@@H]2O)c(=O)n1 [Cytarabine] + Nc1ncn([C@H]2C[C@H](O)[C@@H](CO)O2)c(=O)n1 [Decitabine] (partner 2 µM)", 0.442),
]

* * *

- System: NCI-H520
- Protocol: relative viability (nuclei count vs DMSO), 5 days (fraction); higher = more cells survive
- Condition Info: first compound 0.253 µM

# Molecule, relative viability
measured = [
    ("O=c1[nH]c2ccccc2n1C1CCN(CCCC(c2ccc(F)cc2)c2ccc(F)cc2)CC1 [Pimozide] + Cc1cc(Nc2cc(N3CCN(C)CC3)nc(Sc3ccc(NC(=O)C4CC4)cc3)n2)n[nH]1 [Tozasertib] (partner 0.1 µM)", 0.422),
    ("O=c1[nH]c2ccccc2n1C1CCN(CCCC(c2ccc(F)cc2)c2ccc(F)cc2)CC1 [Pimozide] + N=C(N)NC(=N)NCCc1ccccc1 [Phenformin] (partner 250 µM)", 0.615),
    ("Cc1cnc(-c2cnc(NCCNc3ccc(C#N)cn3)nc2-c2ccc(Cl)cc2Cl)[nH]1 + CC(=O)Nc1cccc(-n2c(=O)n(C3CC3)c(=O)c3c(Nc4ccc(I)cc4F)n(C)c(=O)c(C)c32)c1 [Trametinib] (partner 0.02 µM)", 0.614),
    ("Cc1cnc(-c2cnc(NCCNc3ccc(C#N)cn3)nc2-c2ccc(Cl)cc2Cl)[nH]1 + CC(=O)c1c(C)c2cnc(Nc3ccc(N4CCNCC4)cn3)nc2n(C2CCCC2)c1=O [Palbociclib] (partner 0.5 µM)", 0.202),
    ("Cc1cnc(-c2cnc(NCCNc3ccc(C#N)cn3)nc2-c2ccc(Cl)cc2Cl)[nH]1 + N=C(N)NC(=N)NCCc1ccccc1 [Phenformin] (partner 250 µM)", 0.628),
]

* * *

- Tested on: NCI-H1793
- Protocol: relative viability (nuclei count vs DMSO), 5 days (fraction); higher = more cells survive
- Condition Info: first compound 0.000632 µM
Lab note: cut-off is 0.4. Strictly less in relative viability is fulfilled. Exactly 0.4 or more is not fulfilled.

# Compound, Qualitative Label
records = [
    ("CC(=O)O[C@@]12CO[C@@H]1C[C@H](O)[C@@]1(C)C(=O)[C@H](O)C3=C(C)[C@@H](OC(=O)[C@H](O)[C@@H](NC(=O)OC(C)(C)C)c4ccccc4)C[C@@](O)([C@@H](OC(=O)c4ccccc4)[C@H]21)C3(C)C [Docetaxel] + NC(=O)Nc1cc(-c2cccc(F)c2)sc1C(=O)N[C@H]1CCCNC1 [AZD7762] (partner 0.2 µM)", "fulfilled"),
    ("CC(=O)O[C@@]12CO[C@@H]1C[C@H](O)[C@@]1(C)C(=O)[C@H](O)C3=C(C)[C@@H](OC(=O)[C@H](O)[C@@H](NC(=O)OC(C)(C)C)c4ccccc4)C[C@@](O)([C@@H](OC(=O)c4ccccc4)[C@H]21)C3(C)C [Docetaxel] + CC(=O)Nc1cccc(-n2c(=O)n(C3CC3)c(=O)c3c(Nc4ccc(I)cc4F)n(C)c(=O)c(C)c32)c1 [Trametinib] (partner 0.02 µM)", "not fulfilled"),
    ("CC(=O)O[C@@]12CO[C@@H]1C[C@H](O)[C@@]1(C)C(=O)[C@H](O)C3=C(C)[C@@H](OC(=O)[C@H](O)[C@@H](NC(=O)OC(C)(C)C)c4ccccc4)C[C@@](O)([C@@H](OC(=O)c4ccccc4)[C@H]21)C3(C)C [Docetaxel] + Cc1cc(Nc2cc(N3CCN(C)CC3)nc(Sc3ccc(NC(=O)C4CC4)cc3)n2)n[nH]1 [Tozasertib] (partner 0.1 µM)", "fulfilled"),
    ("CC(=O)O[C@@]12CO[C@@H]1C[C@H](O)[C@@]1(C)C(=O)[C@H](O)C3=C(C)[C@@H](OC(=O)[C@H](O)[C@@H](NC(=O)OC(C)(C)C)c4ccccc4)C[C@@](O)([C@@H](OC(=O)c4ccccc4)[C@H]21)C3(C)C [Docetaxel] + CS(=O)(=O)CCNCc1ccc(-c2ccc3ncnc(Nc4ccc(OCc5cccc(F)c5)c(Cl)c4)c3c2)o1 [Lapatinib] (partner 2 µM)", "not fulfilled"),
    ("CC(=O)O[C@@]12CO[C@@H]1C[C@H](O)[C@@]1(C)C(=O)[C@H](O)C3=C(C)[C@@H](OC(=O)[C@H](O)[C@@H](NC(=O)OC(C)(C)C)c4ccccc4)C[C@@](O)([C@@H](OC(=O)c4ccccc4)[C@H]21)C3(C)C [Docetaxel] + CS(=O)(=O)N1CCN(Cc2cc3nc(-c4cccc5[nH]ncc45)nc(N4CCOCC4)c3s2)CC1 [Pictilisib] (partner 1 µM)", "fulfilled"),
    ("CC(=O)O[C@@]12CO[C@@H]1C[C@H](O)[C@@]1(C)C(=O)[C@H](O)C3=C(C)[C@@H](OC(=O)[C@H](O)[C@@H](NC(=O)OC(C)(C)C)c4ccccc4)C[C@@](O)([C@@H](OC(=O)c4ccccc4)[C@H]21)C3(C)C [Docetaxel] + C[C@]1(O)C[C@@H](c2nc(-c3ccc4ccc(-c5ccccc5)nc4c3)c3c(N)nccn32)C1 [Linsitinib] (partner 1 µM)", "not fulfilled"),
]
